Reference for the values: ChEMBL document CHEMBL1148195

# Test system: Staphylococcus aureus
# experimental protocol: Antibacterial activity against methicillin-resistant Staphylococcus aureus 310 at 200 ug/spot after 18 hrs by agar diffusion method
# Assay type: functional
observable: inhibition zone (IZ) (mm)
Answers are plain numbers, in mm.

Past entries and their recorded results:
molecule	system name	inhibition zone (IZ), mm
CCCCC1=C(Br)/C(=C\Br)OC1=O [FIMBROLIDE]	Staphylococcus aureus	7
CCC[C@@H](OC(C)=O)C1=C(Br)/C(=C\Br)OC1=O [ACETOXYFIMBROLIDE]	Staphylococcus aureus	25
CC1=CC(=O)C=C(C/C=C(\C)CC/C=C(\C)CC/C=C(\C)CC/C=C(\C)C(=O)O)C1=O	Staphylococcus aureus	8

Attention now turns to another entry.
State the recorded inhibition zone (IZ) for this entry: CCC[C@@H](O)C1=C(Br)/C(=C\Br)OC1=O [HYDROXYFIMBROLIDE]
23
